Each record here notes measured koff.
test system: T1, human blood protein factor XII (FXII) (human, UniProt P00748 20-615)
T1 construct: mature; Single-chain zymogen as it circulates in plasma; also called human FXII; plasma-derived FXII
T1 sequence (looked up): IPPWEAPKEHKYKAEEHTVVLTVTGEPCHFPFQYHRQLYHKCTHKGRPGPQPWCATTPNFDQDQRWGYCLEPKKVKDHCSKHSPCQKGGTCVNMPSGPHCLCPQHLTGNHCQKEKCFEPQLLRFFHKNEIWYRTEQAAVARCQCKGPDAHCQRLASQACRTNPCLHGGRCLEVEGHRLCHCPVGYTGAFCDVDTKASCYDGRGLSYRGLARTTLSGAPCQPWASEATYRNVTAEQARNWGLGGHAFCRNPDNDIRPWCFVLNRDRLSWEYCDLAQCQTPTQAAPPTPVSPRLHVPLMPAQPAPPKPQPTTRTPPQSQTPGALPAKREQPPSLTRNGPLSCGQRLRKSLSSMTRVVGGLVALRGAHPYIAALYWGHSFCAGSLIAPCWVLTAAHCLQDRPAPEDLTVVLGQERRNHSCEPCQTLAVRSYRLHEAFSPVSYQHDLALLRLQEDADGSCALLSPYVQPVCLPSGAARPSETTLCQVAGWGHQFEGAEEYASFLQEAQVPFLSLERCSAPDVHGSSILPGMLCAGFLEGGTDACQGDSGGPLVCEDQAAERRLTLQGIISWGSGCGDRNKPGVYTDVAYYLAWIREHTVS
protocol notes: BLI (Octet RED96), antibody on anti-human Fc biosensors, antigen in solution, 1:1 fit
# value in s⁻¹; strip the unit string

Recorded results for 4 binders are shown here.
The recorded koff for entry humanized 5C12 antibody HC2 + LC2 (PP13897) (antibody, human IgG4 S228P, kappa, V domains shown, Human IgG4 (S241P hinge modified), expressed in HEK293; also called H7881 + L7881) VH: DVQLQESGPGLVKPSQTLSLTCTVTGYSITSGYSWHWIRQHPGKGLEWMGYIQYSGNTNSNPSLKSRVTISRDTSKNQFSLKLSSVTAADTAVYYCARWGSFDYWGQGTLVTVSS VL: EIVLTQSPATLSLSPGERATLSCRASSSVNYLHWYQQKPGQAPKRWIYDTSKLATGIPARFSGSGSGTDYTLTISSLEPEDFAVYYCQQWSGNPPTFGGGTKVEIKR equals 9e-05

The recorded koff for entry humanized 5C12 antibody HC3 + LC2 (PP13900) (antibody, human IgG4 S228P, kappa, V domains shown, Human IgG4 (S241P hinge modified), expressed in HEK293; also called H7882 + L7881) VH: DVQLQESGPGLVKPSETLSLTCTVSGYSITSGYSWHWIRQPPGKGLEWIGYIQYSGNTNSNPSLKSRVTISRDTSKNQFSLRLSSVTAADTAVYYCARWGSFDYWGQGTMVTVSS VL: EIVLTQSPATLSLSPGERATLSCRASSSVNYLHWYQQKPGQAPKRWIYDTSKLATGIPARFSGSGSGTDYTLTISSLEPEDFAVYYCQQWSGNPPTFGGGTKVEIKR equals 0.00019

The recorded koff for entry humanized 5C12 antibody HC1 + LC3 (PP13895) (antibody, human IgG4 S228P, kappa, V domains shown, Human IgG4 (S241P hinge modified), expressed in HEK293; also called H7880 + L7882) VH: QVQLQESGPGLVKPSQTLSLTCTVSGYSITSGYSWHWIRQHPGKGLEWIGYIQYSGNTNSNPSLKSRVTISRDTSKNQFSLKLSSVTAADTAVYYCARWGSFDYWGQGTLVTVSS VL: DIVLTQTPATLSLSPGERATLSCRASSSVNYLHWYQQKPGQAPKRLIYDTSKLATGIPARFSGSGSGTDYTLTISSLEPEDFAVYYCQQWSGNPPTFGQGTRLEIKR equals 0.0002

The recorded koff for entry humanized 5C12 antibody HC3 + LC3 (PP13901) (antibody, human IgG4 S228P, kappa, V domains shown, Human IgG4 (S241P hinge modified), expressed in HEK293; also called H7882 + L7882) VH: DVQLQESGPGLVKPSETLSLTCTVSGYSITSGYSWHWIRQPPGKGLEWIGYIQYSGNTNSNPSLKSRVTISRDTSKNQFSLRLSSVTAADTAVYYCARWGSFDYWGQGTMVTVSS VL: DIVLTQTPATLSLSPGERATLSCRASSSVNYLHWYQQKPGQAPKRLIYDTSKLATGIPARFSGSGSGTDYTLTISSLEPEDFAVYYCQQWSGNPPTFGQGTRLEIKR equals 0.00018

// switching to the query binder
The recorded koff for entry Chimera (chimeric parental antibody) PP13892 (antibody, human IgG4, V domains shown, Variable regions of murine AB053 on the same human IgG4 (S241P hinge modified) backbone as the humanized antibodies; also called H7879 + L7879) VH: DVQLQESGPDLVKPSQSLSLTCTVTGYSITSGYSWHWIRQFPGNNLEWMGYIQYSGNTNSNPSLKSRISITRDTSKNQFFLHLNSVTTEDTATYYCARWGSFDYWGQGTTLTVSS VL: QIVLTQSPAIMSASPGEKVTMTCSASSSVNYMHWYQQKSGTSPKRWIYDTSKLASGVPARFSGSGSGTSYSLTISSMEAGDAATYYCQQWSGNPPTFGGGTILEIK equals 0.00011
